Test system: adipose tissues from male Zucker fatty (fa/fa) rats
Test: In vitro inhibition of lipogenesis in isolated adipose tissue
Assay type: cell-based, rat
Conditions: peptide 0.3 μM, insulin 0.1 mU/ml
Bridges are numbered along the chain shown (N, C = ends). Where no end group is shown, it is not given here.

substance	In vitro lipogenesis Activity
9615 (LRIVQCRSVEASCGF; disulfide 6-13; listed as Homo sapiens) [Compound 9615]	Active
9610 (LRIVACRSVEGSCGF; disulfide 6-13; listed as Homo sapiens) [Compound 9610]	Active
9404 (LRIVQCRSVEGSCGF-NH2; disulfide 6-13; N-terminus assumed; SMILES CC[C@H](C)[C@H](NC(=O)[C@H](CCCNC(=N)N)NC(=O)[C@@H](N)CC(C)C)C(=O)N[C@H](C(=O)N[C@@H](CCC(N)=O)C(=O)N[C@H]1CSSC[C@@H](C(=O)NCC(=O)N[C@@H](Cc2ccccc2)C(N)=O)NC(=O)[C@H](CO)NC(=O)CNC(=O)[C@H](CCC(=O)O)NC(=O)[C@H](C(C)C)NC(=O)[C@H](CO)NC(=O)[C@H](CCCNC(=N)N)NC1=O)C(C)C; listed as Homo sapiens) [Compound 9404]	Active
9410 (H-LRIVQCRSVEGSCGF; disulfide 6-13; also: desamino N-terminus; listed as Homo sapiens) [Compound 9410]	Active

----------
System: adipose tissues from male Zucker fatty (fa/fa) rats
Assay: In vitro inhibition of lipogenesis in isolated adipose tissue
Type: cell-based, rat
Details: peptide 0.3 μM, insulin 0.1 mU/ml
Bridges are numbered along the chain shown (N, C = ends). Where no end group is shown, it is not given here. [ ]: non-standard residue; d: D form. Pen = CC(C)(S)[C@H](N)C(=O)O
measuredParameter: In vitro lipogenesis Activity

These recorded examples may help you get a feel for the data.
>>> print(df.to_string())
                                  substance     value
0  9609 (LRIAQCRSVEGSCGF; disulfide 6-13; listed as Homo sapiens) [Compound 9609]    Active
1  9605 (KLRIVQCRSVEGSCGF; disulfide 7-14; listed as Homo sapiens) [Compound 9605]    Active
2  9502 (LRIVQ[Pen]RSVEGS[Pen]GF; disulfide 6-13; listed as Homo sapiens) [Compound 9502]    Active
3  9606 (LKIVQCRSVEGSCGF; disulfide 6-13; listed as Homo sapiens) [Compound 9606]    Active
4  9617 (LRIVQCRSVEGSAGF; listed as Homo sapiens) [Compound 9617]  Inactive
5  9618 (KKLRIVQCRSVEGSCGF; disulfide 8-15; listed as Homo sapiens) [Compound 9618]    Active
6  9614 (LRIVQCRSVAGSCGF; listed as Homo sapiens) [Compound 9614]  Inactive

Q) Consider the substance 9613 (LRIVQCRSAEGSCGF; disulfide 6-13; listed as Homo sapiens) [Compound 9613] . State its measured In vitro lipogenesis Activity.
A) Active

----------
Recorded Glycerol release by entry
Tested on: adipose tissues from male Zucker fatty (fa/fa) rats
Assay: In vitro glycerol release during lipolysis in isolated adipose tissue
Assay type: cell-based, rat
Settings: peptide concentration 1.0 μM
Bridges are numbered along the chain shown (N, C = ends). Where no end group is shown, it is not given here.
Answer in μmol/g tissue/hr, number only, no unit symbol.

substance	measuredParameter	unitsText	value
9404 (LRIVQCRSVEGSCGF-NH2; disulfide 6-13; N-terminus assumed; SMILES CC[C@H](C)[C@H](NC(=O)[C@H](CCCNC(=N)N)NC(=O)[C@@H](N)CC(C)C)C(=O)N[C@H](C(=O)N[C@@H](CCC(N)=O)C(=O)N[C@H]1CSSC[C@@H](C(=O)NCC(=O)N[C@@H](Cc2ccccc2)C(N)=O)NC(=O)[C@H](CO)NC(=O)CNC(=O)[C@H](CCC(=O)O)NC(=O)[C@H](C(C)C)NC(=O)[C@H](CO)NC(=O)[C@H](CCCNC(=N)N)NC1=O)C(C)C; listed as Homo sapiens) [compound 9404]	Glycerol release	μmol/g tissue/hr	1.94
9403 (LRKVQCRSVEGSCGF; disulfide 6-13; listed as Homo sapiens) [compound 9403]	Glycerol release	μmol/g tissue/hr	1.88
9407 (LRIVQCKSVEGSCGF; disulfide 6-13; listed as Homo sapiens) [compound 9407]	Glycerol release	μmol/g tissue/hr	1.79

Turning to the following substance.
Q) Find Glycerol release for 9401 (LRIVQCRSVEGSCGF; listed as Homo sapiens) [compound 9401] on adipose tissues from male Zucker fatty (fa/fa) rats and write it down.
A) 1.86
